Recorded melting point, one value per entry.

Recorded results for 4 compounds are shown here.
[[record]]
smiles_entry = "COc1ccc2nc(Cl)c(C=NNc3nc(-c4ccc(Cl)cc4)cs3)cc2c1"
test_value = "195 to 197 °C"

[[record]]
smiles_entry = "COc1ccc2nc(Cl)c(/C=N/Nc3nc(-c4ccc5ccccc5c4)cs3)cc2c1"
test_value = "199 to 202 °C"

[[record]]
smiles_entry = "COc1ccc2nc(Cl)c(/C=N/Nc3nc(-c4ccc(C#N)cc4)cs3)cc2c1"
test_value = "240 to 242 °C"

[[record]]
smiles_entry = "COc1ccc2nc(Cl)c(C=NNc3nc(-c4cccc(Cl)c4)cs3)cc2c1"
test_value = "200 to 202 °C"


--- query ---
Q) Report melting point, nothing else, for this compound: COc1ccc2nc(Cl)c(/C=N/Nc3nc(-c4ccc([N+](=O)[O-])cc4)cs3)cc2c1
A) 245 to 253 °C

----------
# Tested on: Salmonella typhimurium ATCC 13311
# protocol-summary: Antibacterial broth microdilution (CLSI M07-A9), MIC90
# Assay type: cell-based
# condition-description: Salmonella enterica; S. typhimurium ATCC 13311
# Source text: The broth microdilution procedure specified in the M07-A9 document of the Clinical and Laboratory Standards Institute (CLSI) was used for antibacterial study,[55] and the EDef 7.1 document published by EUCAST was used for the antifungal study.[56] For both activity studies, the detailed procedures were explained in previous studies.[57],[58]
quantity-name: MIC90

Recorded results for 5 compounds are shown here.
[[record]]
compound = "COc1cccc(-c2csc(N/N=C/c3cc4cc(OC)ccc4nc3Cl)n2)c1 [4k]"
quantity_name = "MIC90"
test_value = "> 1000 µg/mL"

[[record]]
compound = "COc1ccc2nc(Cl)c(/C=N/Nc3nc(-c4ccccc4)cs3)cc2c1 [4d]"
quantity_name = "MIC90"
test_value = "> 1000 µg/mL"

[[record]]
compound = "COc1ccc2nc(Cl)c(/C=N/Nc3nc(-c4cccc([N+](=O)[O-])c4)cs3)cc2c1 [4i]"
quantity_name = "MIC90"
test_value = "> 1000 µg/mL"

[[record]]
compound = "COc1ccc2nc(Cl)c(/C=N/Nc3nc(-c4ccc([N+](=O)[O-])cc4)cs3)cc2c1 [4c]"
quantity_name = "MIC90"
test_value = "> 1000 µg/mL"

[[record]]
compound = "COc1ccc2nc(Cl)c(C=NNc3nc(-c4cccc(Cl)c4)cs3)cc2c1 [4h]"
quantity_name = "MIC90"
test_value = "> 1000 µg/mL"


Q) Report MIC90, nothing else, for this compound: COc1ccc(-c2csc(N/N=C/c3cc4cc(OC)ccc4nc3Cl)n2)cc1 [4g]
A) > 1000 µg/mL

Q) Report MIC90, nothing else, for this compound: COc1ccc2nc(Cl)c(C=NNc3nc(-c4ccncc4)cs3)cc2c1 [4l]
A) > 1000 µg/mL

The measurements presented in this section are drawn from paper PMC9835529.
